Source: PubChem BioAssay (NCI)

# Tested on: HOP-62 NSCLC
# Measurement protocol: NCI tumour cell line growth inhibition, 48 h
Label Condition met when TGI >= 30 µM; otherwise Condition not met.

>  <Compound>
CC(C)C12CCC3(CCC4C(C)(C(=O)O)CCCC4(C)C3C1)C(CN)C2 (configuration not stated)

>  <Target under test>
HOP-62 NSCLC

>  <Class name>
Condition met

$$$$
>  <Compound>
O=[N+]([O-])c1cccc2c1[nH]c1c(-c3ccccc3)nccc12

>  <Target under test>
HOP-62 NSCLC

>  <Class name>
Condition not met

$$$$
>  <Compound>
COc1ccc(-c2cc(-c3ccc(Nc4ccnc5cc(C(F)(F)F)ccc45)cc3)nc(N)c2C#N)c2ccccc12

>  <Target under test>
HOP-62 NSCLC

>  <Class name>
Condition met

$$$$
>  <Compound>
CCOC(=O)C(NC(=O)c1cccc(Cl)c1)(N1CCN(c2cc3c(cc2F)c(=O)c(C(=O)O)cn3CC)CC1)C(F)(F)F (configuration not stated)

>  <Target under test>
HOP-62 NSCLC

>  <Class name>
Condition met

$$$$
>  <Compound>
O=C1c2sccc2C(=O)c2c(CO)csc21

>  <Target under test>
HOP-62 NSCLC

>  <Class name>
Condition not met

$$$$
>  <Compound>
NC1CC(n2ccc(=O)[nH]c2=O)OC1C(O)CO (configuration not stated)

>  <Target under test>
HOP-62 NSCLC

>  <Class name>
Condition met

$$$$

Enquiry: Decide: TGI of Nc1ccc(N)c2c1C(=O)c1cccc([N+](=O)[O-])c1C2=O >= 30 µM?
Return: Condition not met

Enquiry: Can you check O=CC12CCCN1CCC2 next?
Return: Condition met

Enquiry: Can you check CCOC(=O)NC/C=C/CO next?
Return: Condition met

---

# Tested on: SN12C renal
# Measurement protocol: NCI tumour cell line growth inhibition, 48 h
Measured TGI values are reported for all entries that follow.

# example entries with known answers
>  <Given smiles>
CCn1c(SC)nnc1-c1cc2c([nH]c3ccccc32)c(-c2cccc(O)c2)n1

>  <Measurement>
51.4 µM

$$$$
>  <Given smiles>
Cc1nnc(N)s/c1=N/O

>  <Measurement>
> 100 µM

$$$$
>  <Given smiles>
N=c1sc(N2CCOCC2)nn1CC(=O)c1ccccc1

>  <Measurement>
> 100 µM

$$$$
>  <Given smiles>
COc1ccc(Cl)cc1Nc1nc(C(F)(F)F)ccc1C(=O)N/N=C/c1ccc(Cl)cc1

>  <Measurement>
> 100 µM

$$$$
>  <Given smiles>
COc1cc(-c2nn(-c3cccc(NC(=O)c4cccc(C(F)(F)F)c4)c3)cc2-c2ccncc2)ccc1Cl

>  <Measurement>
> 50 µM

$$$$

Enquiry: Value wanted: TGI (SN12C renal) of entry CCC(=C(c1ccc(OCCN(CC)CC)cc1)c1ccc(OCCN(CC)CC)cc1)c1ccc(Cl)cc1
Return: 1.24 µM

Enquiry: Can you check CN(C)c1ccc(/C=C2\Cc3ccccc3C2=O)cc1Br next?
Return: > 100 µM

Enquiry: Can you check Cc1c(C(=O)C/C(=N/NC(=O)CC#N)C(N)=O)[n+](=O)c2ccccc2n1[O-] next?
Return: 97.7 µM

Enquiry: Can you check CCCCCCCCCCCCCCCC(=O)NCC(OCC)OCC next?
Return: > 100 µM

Enquiry: Can you check COc1cccc2c(Nc3ccc(C(=O)NCCN4CCNCC4)cc3)cc(-c3ccccc3)nc12 next?
Return: > 100 µM

---

# Test system: NCI-H226 lung
# Measurement protocol: NCI tumour cell line growth inhibition, 48 h
Measured TGI values are reported for all entries that follow.

# example entries with known answers
>  <Molecule>
CCCCCCCCCCCCCCCC(=O)OCC(COP(=O)(O)OCCNC(=O)CCSSc1ccccn1)OC(=O)CCCCCCCCCCCCCCC (stereo not given)

>  <Property measured>
TGI

>  <Measurement>
> 100 µM

$$$$
>  <Molecule>
COc1cc(/C=C/C(=O)c2c(-c3ccc(Cl)cc3)nc3sc(C)nn23)cc(OC)c1OC

>  <Property measured>
TGI

>  <Measurement>
> 100 µM

$$$$
>  <Molecule>
CCOC(=O)Oc1ccc2[nH]c3c(C)cc(N)c(C)c3c2c1

>  <Property measured>
TGI

>  <Measurement>
> 100 µM

$$$$
>  <Molecule>
CC(=O)CC(=O)N1CCOC1=O

>  <Property measured>
TGI

>  <Measurement>
> 10 µM

$$$$

Enquiry: Value wanted: TGI (NCI-H226 lung) of entry Clc1cc2ncn(C3CCCO3)c2cc1Cl (stereo not given)
Return: > 100 µM

Enquiry: Can you check CC(C)S1=C2C(=O)CC(C)(C)CC2=Nc2ccccc21 (stereo not given) next?
Return: > 100 µM

Enquiry: Can you check COc1cc(COC(=O)NC(Cc2cccs2)C(=O)O)c([N+](=O)[O-])cc1OC (stereo not given) next?
Return: > 100 µM

Enquiry: Can you check Cn1c(=O)c(C#N)c(O)c2cc3ccccc3nc21 next?
Return: > 100 µM

Enquiry: Can you check FC(F)(Sc1nc2ccccc2[nH]1)c1nc2ccccc2o1 next?
Return: > 100 µM

Enquiry: Can you check CC(=O)OC1C(C)OC(OC2C[C@](O)(C(C)=O)Cc3c(O)c4c(c(O)c32)C(=O)c2ccccc2C4=O)C(F)C1OC(C)=O (stereo not given in full) next?
Return: 2.86 µM

---

# Test system: M14 melanoma
# Measurement protocol: NCI tumour cell line growth inhibition, 48 h
Property measured: TGI

>  <Compound>
Oc1[nH]c2ccccc2c1N=Nc1nc(-c2ccccc2)cs1

>  <TGI>
> 100 µM

$$$$
>  <Compound>
CC(=O)OC/C=C/Cn1nc(Br)c(=O)[nH]c1=O

>  <TGI>
> 100 µM

$$$$
>  <Compound>
CC(=O)OCc1cc2c(s1)C(=O)c1sccc1C2=O

>  <TGI>
< 0.0189 µM

$$$$

Enquiry: State the recorded TGI for this entry: O=C(/C=C/c1ccc(OCC(=O)N2CCN(c3ccccc3)CC2)cc1)c1ccccc1
Return: > 100 µM

---

# Test system: KM12 colon
# Measurement protocol: NCI tumour cell line growth inhibition, 48 h
Measured TGI values are reported for all entries that follow.

# example entries with known answers
>  <Compound>
CCCCCCCCCCCCCCCC(=O)OCC(COP(=O)(O)OCCNC(=O)CCSSc1ccccn1)OC(=O)CCCCCCCCCCCCCCC (centres undefined)

>  <Target under test>
KM12 colon

>  <Measurement>
> 100 µM

$$$$
>  <Compound>
CC(=O)CC(=O)N1CCOC1=O

>  <Target under test>
KM12 colon

>  <Measurement>
> 10 µM

$$$$
>  <Compound>
C=CCCC1(CCP(=O)(c2ccccc2)c2ccccc2)OCCO1

>  <Target under test>
KM12 colon

>  <Measurement>
> 100 µM

$$$$
>  <Compound>
O=C(CCc1ccccc1)NCCc1ccc(O)c(O)c1

>  <Target under test>
KM12 colon

>  <Measurement>
> 94.4 µM

$$$$
>  <Compound>
COc1ccc(N=C(SSC(=Nc2ccc(OC)cc2)c2ccc([N+](=O)[O-])o2)c2ccc([N+](=O)[O-])o2)cc1

>  <Target under test>
KM12 colon

>  <Measurement>
2.79 µM

$$$$

Enquiry: State the recorded TGI for this entry: CCn1c(SC)nnc1-c1cc2c([nH]c3ccccc32)c(-c2cccc(O)c2)n1
Return: 44.7 µM

Enquiry: Can you check Cc1c(N)nc(C2CC(=O)N2CC(N)C(N)=O)nc1C(=O)NC(C(=O)NC(C)C(O)C(C)C(=O)NC(C(=O)NCCc1nc(-c2nc(C(=O)NCCNCC(C)O)cs2)cs1)C(C)O)C(OC1OC(CO)C(O)C(O)C1OC1OC(CO)C(O)C(OC(N)=O)C1O)c1cnc[nH]1 (centres undefined) next?
Return: > 100 µM

Enquiry: Can you check COc1cc2c(cc1OCCCN1CCN(CCCn3c4ccccc4c4ccccc43)CC1)N=C[C@@H]1CCCN1C2=O next?
Return: 0.578 µM

Enquiry: Can you check CNC(=O)N(C)C(=O)c1ccccc1C(=O)N(C)C(=O)NC next?
Return: > 10 µM

---

Measured TGI values are reported for all entries that follow.
# Test system: MDA-MB-231 breast
# Measurement protocol: NCI tumour cell line growth inhibition, 48 h

# example entries with known answers
>  <Molecule>
CCOC(=O)C1(NC(=O)OC(C)(C)C)CCc2[nH]oc(=O)c2C1 (stereo unspecified)

>  <TGI>
> 100 µM

$$$$
>  <Molecule>
CCCCN1/C(=N/Nc2n[nH]c(=O)c3ccccc23)SCC1c1ccc(Cl)cc1 (stereo unspecified)

>  <TGI>
55 µM

$$$$
>  <Molecule>
Cc1ccc(S(=O)(=O)NCc2cccc([N+](=O)[O-])c2)cc1

>  <TGI>
> 100 µM

$$$$
>  <Molecule>
CCCCC(C)(C/C=C/[C@@H]1[C@@H](C(O)CCCCCC(=O)OC)C(=O)C[C@H]1O[Si](C)(C)C(C)(C)C)O[Si](C)(C)C (stereo partly specified)

>  <TGI>
> 100 µM

$$$$
>  <Molecule>
CC(=O)OC1C(C)OC(OC2C[C@](O)(C(C)=O)Cc3c(O)c4c(c(O)c32)C(=O)c2ccccc2C4=O)C(F)C1OC(C)=O (stereo partly specified)

>  <TGI>
10.7 µM

$$$$
>  <Molecule>
CNc1nc(OC)c2c(n1)[n+](C)cn2C

>  <TGI>
> 100 µM

$$$$
>  <Molecule>
COc1cc(CC2C(=O)OCC2Cc2ccc(OC)c(OC)c2)ccc1O (stereo unspecified)

>  <TGI>
> 100 µM

$$$$
>  <Molecule>
CC(=O)OC/C=C/Cn1nc(Br)c(=O)[nH]c1=O

>  <TGI>
> 100 µM

$$$$

Enquiry: State the recorded TGI for this entry: CCOC(=O)N/N=C(/N)Cc1ccc(Cl)cc1
Return: > 100 µM

Enquiry: Can you check FC(F)(Sc1nc2ccccc2[nH]1)c1nc2ccccc2o1 next?
Return: > 100 µM
